- Test system: CH58TF infected primary CD4+ T-cells
- protocol.description: Recognition of HIV-1 infected cells by 17b (flow cytometry cell-surface staining)
- Format: cell-based
- recorded.conditions: Human immunodeficiency virus 1, T-cell, read-out: Fold Over DMSO (17b, n = 1)
Kindly state fold induction at 50 µM for each of the entries shown.
One number for each entry.

# annotated cases, reported fold induction at 50 µM shown
INSERT INTO measurements (molecule, measured_result) VALUES
  ('CS(=O)(=O)N1CCC[C@H](C(=O)Nc2cccc(Br)c2)C1 [(S)-MCG-III-027-B02]', 1.06),
  ('Cn1cnc(S(=O)(=O)N2CC(C(=O)Nc3ccc(Cl)c(F)c3)Cc3ccccc32)c1 (stereo not drawn)', 1.15),
  ('CS(=O)(=O)N1CCC[C@H](C(=O)Nc2ccc(F)c(F)c2)C1 [(S)-MCG-III-085-A04]', 3),
  ('O=C(Nc1ccc(Cl)c(Cl)c1)[C@H]1CCCN(S(=O)(=O)c2ccccc2)C1 [(S)-MCG-III-085-D03]', 4.87),
  ('CS(=O)(=O)N1CCC[C@H](C(=O)Nc2cccc(F)c2)C1 [(S)-MCG-III-027-B03]', 1.05),
  ('CCS(=O)(=O)N1CCC[C@H](C(=O)Nc2ccc(Cl)c(F)c2)C1 [(S)-MCG-III-085-C01]', 5.7),
  ('Cn1cnc(S(=O)(=O)N2CCNC(C(=O)Nc3ccc(Cl)c(F)c3)C2)c1 (stereo not drawn)', 1.24),
  ('O=C(Oc1ccc(Cl)c(F)c1)[C@H]1CCCN(S(=O)(=O)c2ccccc2)C1 [(S)-MCG-III-213-A03]', 0.928),
  ('CCOC(=O)N1CCC[C@H](C(=O)Nc2ccc(Cl)c(F)c2)C1 [(S)-MCG-III-188-A02]', 6.35),
  ('CCS(=O)(=O)N1CCC[C@H](C(=O)Nc2ccc(Cl)c(Cl)c2)C1 [(S)-MCG-III-085-C03]', 3.83);

# map each molecule to its fold induction at 50 µM
1. CS(=O)(=O)N1CC(C(=O)Nc2ccc(Cl)c(F)c2)Cc2ccccc21 (stereo not drawn)
2. O=C(Nc1ccc(Cl)c(F)c1)C1CN(S(=O)(=O)c2ccccc2)CCN1 (stereo not drawn)
3. CS(=O)(=O)N1CCC[C@H](C(=O)Nc2ccc(F)cc2F)C1 [(S)-MCG-III-027-D04]
4. CCS(=O)(=O)N1CCNC(C(=O)Nc2ccc(Cl)c(F)c2)C1 (stereo not drawn)
5. O=C(Nc1ccc(Cl)c(F)c1)C1CNc2ccccc2C1 (stereo not drawn)
6. O=C(Nc1ccc(Cl)c(F)c1)[C@H]1CCCN(S(=O)(=O)c2ccccc2)C1 [(S)-MCG-III-085-D01]
7. CS(=O)(=O)N1CCNC(C(=O)Nc2ccc(Cl)c(F)c2)C1 (stereo not drawn)
8. CCS(=O)(=O)N1CC(C(=O)Nc2ccc(Cl)c(F)c2)Cc2ccccc21 (stereo not drawn)

[1.39, 1.47, 1.17, 3.95, 3.23, 6.4, 1.3, 5.16]
